Reference source: the SangsterLogP compilation

assay: method code SF-AS, from DOI: 10.1021/jm0104926, PMID: 11960499
Measured endpoint: logP
Number only, no unit.

Fill in: logP of [N-]=[N+]=CC(F)(F)F is ___
1.6

====

assay: method code SF-AS, from DOI: 10.1016/0005-2728(86)90252-5, PMID: 3015209; conditions: pH 7.2
Measured endpoint: logD

N#CC(C#N)=NNc1ccc([N+](=O)[O-])cc1Cl | 2

Now, please, on to the next compound.
Fill in: logD of Cc1cccc(C)c1NN=C(C#N)C#N is ___
2.1

====

Listed next: entries and their corresponding logD.
assay: method code SF-AS, from PMID: 872227; conditions: pH 7.2
Number only, no unit.

Observe how each entry below is paired with its result.
CCCCCCOc1ccc(NC(=O)OCCN2CCOCC2)c(C)c1 | 3.9
CCCCOc1ccc(NC(=O)OCCN2CCOCC2)c(C)c1 | 2.82

Now, please, on to the next compound.
Fill in: logD of CCCCCOc1ccc(NC(=O)OCCN2CCOCC2)c(C)c1 is ___
3.38

====

experiment: method code SF-AS, from DOI: 10.1016/0048-3575(87)90152-0
Measured endpoint: logP
Number only, no unit.

Fill in: logP of CCC(C(=O)Oc1ccccc1)C(C)C (stereo unspecified) is ___
4.2

====

Measured endpoint: logP
Number only, no unit.

Fill in: logP of O=C(O)CNC(=O)OCc1ccccc1 is ___
1.47

====

assay: method code SF-AS, from DOI: 10.1016/0006-2952(80)90068-4, PMID: 6775639
Measured endpoint: logP
Number only, no unit.

Fill in: logP of CC1=CC(=O)c2ccccc2C1=O is ___
1.88

====

experiment: method code SF-AS, from DOI: 10.1021/jm9800301, PMID: 9748357; conditions: pH 7.4
Measured endpoint: logD
Number only, no unit.

Fill in: logD of O=C(NCc1ccc(O)cc1)C(=O)c1c[nH]c2ccc([N+](=O)[O-])cc12 is ___
2.67

====

experiment: method code SF-GLC, from DOI: 10.1584/jpestics.7.397
Measured endpoint: logP
Number only, no unit.

Fill in: logP of CC(C)Oc1cccc(NC(=O)c2ccccc2C(F)(F)F)c1 is ___
3.7

====

assay: method code SF, from DOI: 10.1021/jm030913e.s001, PMID: 14736235; conditions: pH 7.4
Listed next: entries and their corresponding logD.
Number only, no unit.

Observe how each entry below is paired with its result.
CC[C@@H](C(N)=O)N1CCCC1=O | -0.65
CC[C@@H](C(N)=O)N1C[C@H](CI)CC1=O | 0.51

Now, please, on to the next molecule.
Fill in: logD of CCC[C@@H]1CC(=O)N([C@@H](CC)C(N)=O)C1 is ___
1

====

assay: method code SF-AS, from DOI: 10.1111/j.2042-7158.1979.tb13606.x, PMID: 41067; settings: pH 1.2
Listed next: entries and their corresponding logD.
Number only, no unit.

COc1ccc(CCC(=O)O)cc1 | 1.9

Fill in: logD of COc1ccc(C(=O)O)cc1 is ___
1.88

Also, CCCCOc1ccc(C(=O)O)cc1 please.
3.57

====

Listed next: entries and their corresponding logP.
assay: method code SF-AS, from DOI: 10.1021/jm00047a013, PMID: 7932583
Number only, no unit.

Observe how each entry below is paired with its result.
CO[C@@H]1N([C@H]2C[C@H](F)[C@@H](CO)O2)C(=O)NC(=O)[C@@]1(C)Br | 0.54
CO[C@H]1N([C@H]2C[C@H](F)[C@@H](CO)O2)C(=O)NC(=O)[C@]1(C)Cl | 0.71

Now, please, on to the next compound.
Fill in: logP of CO[C@@H]1N([C@H]2C[C@H](F)[C@@H](CO)O2)C(=O)NC(=O)[C@@]1(C)I is ___
0.6

====

Measured endpoint: logP

Fill in: logP of CN(C)c1cc[n+]([O-])cc1 is ___
-0.9

Also, [O-][n+]1ccc(-c2ccccc2)cc1 please.
0.93

====

experiment: method code SF-HPLC, from DOI: 10.1016/0378-5173(84)90193-5; conditions: pH 4.0
Measured endpoint: logD

Fill in: logD of O=c1[nH]cc(F)c(=O)n1Oc1ccccc1 is ___
0.8

====

Listed next: entries and their corresponding logD.
experiment: method code SF-AS, from PMID: 3699148; settings: pH 7.4
Number only, no unit.

NC(=O)c1cc(Cl)ccc1NCCO | 1.26
Cc1ccc(SCCNc2ccccc2C(N)=O)cc1 | 3.15

Now, please, on to the next compound.
Fill in: logD of NC(=O)c1ccccc1NCCO is ___
-0.05

====

test: method code SF-AS, from PMID: 1042; settings: pH 7.4
Measured endpoint: logD
Number only, no unit.

Fill in: logD of CCCCOc1ccc(CC(=O)NO)cc1 is ___
2.08

====

experiment: method code SF-AS, from DOI: 10.1007/bf01067967, PMID: 3820093; settings: pH 7.5
Listed next: entries and their corresponding logD.
Number only, no unit.

CC(C)c1ccc(N)cc1 | 2.31
CCCCc1ccc(N)cc1 | 3.05

Fill in: logD of Nc1ccc2ccccc2c1 is ___
2.4

====

test: method code SF, from DOI: 10.1021/jm0498699.s001, PMID: 15163209
Measured endpoint: logP
Number only, no unit.

Fill in: logP of COC(=O)CCNC(=O)c1cc(N2CC2)c([N+](=O)[O-])cc1[N+](=O)[O-] is ___
0.56

====

experiment: method code SF-RC, from DOI: 10.1002/jlcr.2580210110; conditions: pH 7.4
Measured endpoint: logD
Number only, no unit.

FC(F)(c1ccccc1)C(F)(F)c1ccccc1 | 5

Now, please, on to the next molecule.
Fill in: logD of FC12CC3CC(CC(C3)C1)C2 is ___
5.7

====

assay: method code SF-HPLC, from DOI: 10.1016/s0223-5234(02)01360-0, PMID: 12008054; details: pH 7.4
Measured endpoint: logD

CNC(=NC#N)NCCSCc1nc[nH]c1C | 0.35

Fill in: logD of NC(N)=N/N=C/c1c(Cl)cccc1Cl is ___
1.4

Also, CC(C)C[C@H]1C(=O)N2CCC[C@H]2[C@]2(O)O[C@](NC(=O)[C@@H]3C=C4c5cccc6[nH]c(Br)c(c56)C[C@H]4N(C)C3)(C(C)C)C(=O)N12 please.
4.61

====

assay: method code SF, from DOI: 10.1021/acs.jmedchem.6b00554, PMID: 27500461; details: pH 7.4
Measured endpoint: logD
Number only, no unit.

Fill in: logD of Cc1sc(=NC(=O)C2C(C)(C)C2(C)C)n(CCCCF)c1C is ___
3.22

====

Listed next: entries and their corresponding logP.

Fill in: logP of CCc1cc(CC)c(OC)c(C(=O)O)c1OC is ___
2.98

Also, O=C(O)c1ccc(I)cc1 please.
3.13

Also, CC(C(=O)O)c1ccc(C(=O)c2cccs2)cc1 (stereo not drawn) please.
2.83

====

Measured endpoint: logP
Number only, no unit.

Fill in: logP of COCC(C)OC(C)=O (stereo unspecified) is ___
0.56

====

Listed next: entries and their corresponding logD.
settings: pH 7.4
Number only, no unit.

Observe how each entry below is paired with its result.
CSC[S@](=O)C[C@H](C)NC(=O)/C=C/c1c(C)[nH]c(=O)[nH]c1=O | -0.7
CCCCCSCS(=O)CC(CO)NC(=O)/C=C/c1c(C)[nH]c(=O)[nH]c1=O (stereo not drawn) | 0.6

Fill in: logD of CSC[S@](=O)C[C@H](CO)NC(=O)/C=C/c1c(C)[nH]c(=O)[nH]c1=O is ___
-1.71

====

Listed next: entries and their corresponding logP.
Number only, no unit.

CCCCCCNCc1ccc(C)cc1 | 4.96
CCCCCCCNCc1ccc(C)cc1 | 5.12
CCNCc1ccc(C)cc1 | 2.38

Now, please, on to the next molecule.
Fill in: logP of CCCCNCc1ccc(C)cc1 is ___
3.49

====

assay: method code SF-HPLC, from DOI: 10.1211/146080899128734820; conditions: pH 2.0
Measured endpoint: logD

Fill in: logD of CC[C@H](C)C(=O)O[C@H]1C[C@@H](C)C=C2C=C[C@H](C)[C@H](CC[C@@H]3C[C@@H](O)CC(=O)O3)[C@H]21 is ___
4.04

====

assay: method code SF, from PMID: 21667; conditions: pH 10.1
Measured endpoint: logD

Fill in: logD of COc1ccccc1N1CCN(CCCNc2cc(=O)n(C)c(=O)n2C)CC1 is ___
1.6
